- ASSAYED_SYSTEM: Acetylcholinesterase (Homo sapiens) (UniProt P22303)
- Sequence (P22303 whole entry, looked up): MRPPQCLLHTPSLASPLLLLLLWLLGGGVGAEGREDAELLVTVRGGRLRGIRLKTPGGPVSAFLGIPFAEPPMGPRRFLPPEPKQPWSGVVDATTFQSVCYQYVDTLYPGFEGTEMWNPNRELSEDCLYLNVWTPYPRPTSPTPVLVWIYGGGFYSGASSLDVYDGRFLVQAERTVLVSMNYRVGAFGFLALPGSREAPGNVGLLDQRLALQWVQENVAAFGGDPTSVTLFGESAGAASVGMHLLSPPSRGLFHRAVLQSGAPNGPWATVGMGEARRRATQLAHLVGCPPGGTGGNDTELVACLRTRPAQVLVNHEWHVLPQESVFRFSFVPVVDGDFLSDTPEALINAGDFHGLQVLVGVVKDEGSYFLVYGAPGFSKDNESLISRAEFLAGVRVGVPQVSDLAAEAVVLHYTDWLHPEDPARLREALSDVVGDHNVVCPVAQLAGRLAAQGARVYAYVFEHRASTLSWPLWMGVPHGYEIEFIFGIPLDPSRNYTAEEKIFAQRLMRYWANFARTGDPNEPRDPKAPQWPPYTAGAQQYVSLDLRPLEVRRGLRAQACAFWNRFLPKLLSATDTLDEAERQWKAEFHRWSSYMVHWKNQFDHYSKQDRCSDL
- METHOD_NOTES: Acetylcholinesterase (AChE) small molecule antagonists: enzyme-based qHTS assay with human liver microsomes (AID 1347399); also: nearly all actives have a fitted effect of over 60% in size
- CONDITION_CONTEXT: qHTS inhibition; series mostly up to 115 µM
- Source text: National Center for Advancing Translational Sciences [NCATS] Division of Preclinical Innovation [DPI] U.S. Environmental Protection Agency [EPA] National Institutes of Environmental Health Sciences [NIEHS] National Toxicology Program [NTP] U.S. Food and Drug Administration [FDA] Acetylcholinesterase (AChE) is the primary cholinesterase in the body that hydrolyzes a key neurotransmitter, acetylcholine. Inhibition of AChE activity can lead to neurotoxicity. […]
Active and inactive are the calls of the source. Calls follow the shape of the full dose curve.
MEASURED_ENDPOINT: outcome

Here is how some compounds turned out for outcome.
> print(dat)
                                   compound  measured.endpoint  reported.result
1                                    CCCCCl            outcome         inactive
2            O=[N+]([O-])c1cc(Cl)c(Cl)cc1Cl            outcome         inactive
3  CC(=O)OC(c1ccccc1)C(Cl)(Cl)Cl (stereo not given)            outcome         inactive
4  C[N+]1(CCF)[C@@H]2CC[C@H]1CC(OC(=O)C(O)(c1ccccc1)c1ccccc1)C2 (stereo not given in full)            outcome         inactive

Now examine the next entry.
Exercise: State the recorded outcome for this entry: CC(C)OC(=O)Cc1ccccc1
Key: inactive
